# assayedSystem: T1, Fab 1181
# T1 construct: Mouse Fab from an Omniclonal library (Biosite); kappa light chain (detected and captured with goat anti-mouse kappa); the HCVR amino acid entry is 12
# T1 sequence (VH, as listed by the source, chain 1 of 2): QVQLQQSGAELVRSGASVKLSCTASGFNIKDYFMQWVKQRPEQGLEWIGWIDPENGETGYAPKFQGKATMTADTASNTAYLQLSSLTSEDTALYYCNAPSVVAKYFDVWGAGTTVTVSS
# T1 sequence (VL, as listed by the source, chain 2 of 2): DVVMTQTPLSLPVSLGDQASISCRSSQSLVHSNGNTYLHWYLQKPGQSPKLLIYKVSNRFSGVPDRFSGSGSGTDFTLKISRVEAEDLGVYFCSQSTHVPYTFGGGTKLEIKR
# experiment: competitive ELISA, Fab 1181 on coated BSA-hGhrelin; compound 1 ug/ml
No end group written: not given here. *: point of attachment. Octanoyl = CCCCCCCC(=O)*
quantityKind: Ave. OD (OD)

INSERT INTO measurements (binder, unitname, endpointvalue) VALUES
  ('HQRVQQRKESKKPPAKLQPR (also called hGhrelin (9-28)) [Ghrelin (9-28)]', 'OD', 1.17),
  ('GSS(Octanoyl)FLSPE (also called hGhrelin (1-8 acyl); Human 1-8 acyl) [Ghrelin (1-8 acyl)]', 'OD', 1.22),
  ('GSSFLSPE (also called hGhrelin (1-8 desacyl)) [Ghrelin (1-8, desacyl)]', 'OD', 1.19),
  ('GSSFLSPEHQRVQQRKESKKPPAKLQPX (octanoyl group on the serine at position 3, the 1-28 form has Arg at 28; also called hGhrelin; acylated hGhrelin) [full-length human ghrelin (1-28) acylated with an octanoyl group on the serine at position 3]', 'OD', 0.0497),
  ('GSSFLSPEHQKAQQRKESKKPPAKLQPR (peptide, UniProt Q9QYH7 24-51, looked up, also: acylated (position and acyl group not given here), mature; The UniProt entry is the precursor; the assay used the ghrelin peptide; also called rGhrelin) [full-length, acylated rat ghrelin]', 'OD', 0.883);
